ASSAY DETAILS: Bioavailability in ferret
MEASUREMENT SETUP: in vivo
RECORDED METRIC: bioavailability (%)

Query: What does the data say about its bioavailability? Entry: `CCCC[C@H](O[C@@H](Cc1ccccc1)C(=O)N1CCC(OCOC)CC1)C(=O)N[C@@H](CC1CCCCC1)[C@@H](O)C[C@H](NC(=O)OCCN(C)C)C(C)C`
Result: 36

Query: If you can, please state the reported bioavailability value of `CCCC[C@H](N[C@@H](Cc1ccccc1)C(=O)N1CCC(OCOC)CC1)C(=O)N[C@@H](CC1CCCCC1)[C@@H](O)C[C@H](C(=O)NCCCN1CCOCC1)C(C)C` .
Result: 34

Query: Fill blank: measured bioavailability of the molecule `CCCC[C@H](O[C@@H](Cc1ccccc1)C(=O)N1CCC(OCOC)CC1)C(=O)N[C@@H](CC1CCCCC1)[C@@H](O)C[C@H](C(=O)NCCCn1ccnc1)C(C)C` is ____.
Result: 25

P: CCCC[C@H](O[C@@H](Cc1ccccc1)C(=O)N1CCC(OCOC)CC1)C(=O)N[C@@H](CC1CCCCC1)[C@@H](O)C[C@H](NC(=O)OCCN1CCOCC1)C(C)C
Q: CCCC[C@H](O[C@@H](Cc1ccccc1)C(=O)N1CCC(OCOC)CC1)C(=O)N[C@@H](CC1CCCCC1)[C@@H](O)C[C@H](C(=O)NCCN1CCOCC1)C(C)C
Query: // pick larger bioavailability from pair: P vs Q Answer = label.
Result: P
(P: 70%, Q: 45%)

P: CCCCNC(=O)[C@@H](C[C@H](O)[C@H](CC1CCCCC1)NC(=O)[C@H](CCCC)N[C@@H](Cc1ccccc1)C(=O)N1CCC(OCOC)CC1)C(C)C
Q: CCCC[C@H](O[C@@H](Cc1ccccc1)C(=O)N1CCC(OCOC)CC1)C(=O)N[C@@H](CC1CCCCC1)[C@@H](O)C[C@H](C(=O)NCCCN1CCOCC1)C(C)C
Query: Lowest bioavailability? choose P or Q # reply format: chosen label
Result: P

Data provenance: ChEMBL document CHEMBL1126033
